Source of measurements: patent US11236084B2

ASSAYED SYSTEM: recombinant human NF-kappaB-inducing kinase (NIK/MAP3K14) (Homo sapiens, UniProt Q99558)
Sequence (Q99558 whole entry): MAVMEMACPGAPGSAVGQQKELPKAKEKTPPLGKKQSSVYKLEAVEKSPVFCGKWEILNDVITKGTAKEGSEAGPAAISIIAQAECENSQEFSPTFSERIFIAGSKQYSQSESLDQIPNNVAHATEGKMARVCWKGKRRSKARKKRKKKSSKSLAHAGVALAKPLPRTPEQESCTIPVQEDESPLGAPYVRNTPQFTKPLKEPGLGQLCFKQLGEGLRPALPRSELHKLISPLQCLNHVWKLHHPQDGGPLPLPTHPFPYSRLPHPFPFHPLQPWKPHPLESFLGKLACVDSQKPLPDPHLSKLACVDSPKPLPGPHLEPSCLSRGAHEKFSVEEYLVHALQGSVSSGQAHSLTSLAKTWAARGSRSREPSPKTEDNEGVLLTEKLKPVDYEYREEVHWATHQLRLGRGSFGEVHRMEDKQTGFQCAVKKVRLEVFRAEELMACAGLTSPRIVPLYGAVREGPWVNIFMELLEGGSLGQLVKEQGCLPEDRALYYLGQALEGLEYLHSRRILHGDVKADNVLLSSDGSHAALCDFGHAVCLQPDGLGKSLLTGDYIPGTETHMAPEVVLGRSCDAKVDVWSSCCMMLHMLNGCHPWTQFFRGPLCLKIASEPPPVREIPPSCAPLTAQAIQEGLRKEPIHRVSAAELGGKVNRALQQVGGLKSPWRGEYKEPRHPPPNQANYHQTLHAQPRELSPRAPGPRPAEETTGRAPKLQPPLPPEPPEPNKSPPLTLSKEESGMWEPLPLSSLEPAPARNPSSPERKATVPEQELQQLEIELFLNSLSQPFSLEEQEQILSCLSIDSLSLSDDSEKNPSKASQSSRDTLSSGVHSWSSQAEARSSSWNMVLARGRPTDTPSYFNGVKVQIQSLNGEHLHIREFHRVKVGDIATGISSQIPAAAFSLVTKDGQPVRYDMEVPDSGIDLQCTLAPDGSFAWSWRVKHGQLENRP
ASSAY COMMENT: Biological Assay B: inhibition of auto-phosphorylation of recombinant human NIK/MAP3K14 (AlphaScreen), performed at 2 locations
Assay type: biochemical
MEASUREMENT SETUP: location 2; AlphaScreen auto-phosphorylation; averaged values; read-out: Assay B location 2 IC50
OBSERVATION TYPE: IC50 (nM)

molecule="CCC1(CCO)CNc2ncc(-c3ccnc(Nc4ccc(C(=O)NC5CCOCC5)cc4OC)n3)cc21 (stereo not shown) [Compound 158]" observation_type=IC50 value_unit=nM quantitative_readout=15.1
molecule="COc1cc(N2CCN(C)CC2)ccc1Nc1nccc(-c2cnc3c(c2)C(C)(CO)CN3)n1 (stereo not shown) [Compound 187]" observation_type=IC50 value_unit=nM quantitative_readout=18.2
molecule="CCN1CCN(c2cc(OC)c(Nc3nccc(-c4cnc5c(c4)C(C)(CO)CN5)n3)cc2C#N)CC1 (stereo not shown) [Compound 279]" observation_type=IC50 value_unit=nM quantitative_readout=2.7
molecule="COc1cc(C(=O)N2CCC(OC)C2)c(Cl)cc1Nc1nccc(-c2cnc3c(c2)C(C)(C)CN3)n1 (stereo not shown) [Compound 292]" observation_type=IC50 value_unit=nM quantitative_readout=1.6
molecule="COc1cc(C(=O)NC2CCOCC2)ccc1Nc1nccc(-c2cnc3c(c2)C(C)(CC#N)CN3)n1 (stereo not shown) [Compound 147]" observation_type=IC50 value_unit=nM quantitative_readout=4.1
molecule="COc1cc(C(=O)N2CCS(=O)(=O)CC2)ccc1Nc1nccc(-c2cnc3c(c2)C(C)(CO)CN3)n1 (stereo not shown) [Compound 132]" observation_type=IC50 value_unit=nM quantitative_readout=3.1
molecule="COc1cc(N2CCC(OC)CC2)c(Cl)cc1Nc1nccc(-c2cnc3c(c2)C(C)(CO)CN3)n1 (stereo not shown) [Compound 327]" observation_type=IC50 value_unit=nM quantitative_readout=2.3
molecule="COc1cc(CCN2CCOCC2)ccc1Nc1nccc(-c2cnc3c(c2)C(C)(CO)CN3)n1 (stereo not shown) [Compound 194]" observation_type=IC50 value_unit=nM quantitative_readout=21.9
molecule="COc1cc(C2COCCN2C)ccc1Nc1nccc(-c2cnc3c(c2)C(C)(CO)CN3)n1 (stereo not shown) [Compound 200]" observation_type=IC50 value_unit=nM quantitative_readout=132
molecule="CN(C)CCOc1cc(N2CCOCC2)c(F)cc1Nc1nccc(-c2cnc3c(c2)C(C)(CO)CN3)n1 (stereo not shown) [Compound 370]" observation_type=IC50 value_unit=nM quantitative_readout=977
molecule="CCC1(CC#N)CNc2ncc(-c3ccnc(Nc4ccc(C(=O)N5CCC(OC)CC5)cc4OC)n3)cc21 (stereo not shown) [Compound 155]" observation_type=IC50 value_unit=nM quantitative_readout=38
molecule="Cc1cc(C(=O)N2CCS(=O)(=O)CC2)ccc1Nc1nccc(-c2cnc3c(c2)C(C)(CO)CN3)n1 (stereo not shown) [Compound 134]" observation_type=IC50 value_unit=nM quantitative_readout=4.4
molecule="COc1cc(CNC(C)=O)c(C)c(Nc2nccc(-c3cnc4c(c3)C(C)(C)CN4)n2)c1 [Compound 49]" observation_type=IC50 value_unit=nM quantitative_readout=1.8
molecule="Cc1ccc(F)cc1Nc1nccc(-c2cnc3c(c2)C(C)(CO)CN3)n1 (stereo not shown) [Compound 198]" observation_type=IC50 value_unit=nM quantitative_readout=8.5
molecule="Cc1ccc(Cl)cc1Nc1nccc(-c2cnc3c(c2)C(C)(CO)CN3)n1 (stereo not shown) [Compound 199]" observation_type=IC50 value_unit=nM quantitative_readout=4.5
molecule="COc1ccc(-c2cnn(C)c2)cc1Nc1nccc(-c2cnc3c(c2)C(C)(CO)CN3)n1 (stereo not shown) [Compound 239]" observation_type=IC50 value_unit=nM quantitative_readout=355
